# testedSystem: COX-1 (Homo sapiens, UniProt P23219)
# Sequence (P23219 24-599, species assumed): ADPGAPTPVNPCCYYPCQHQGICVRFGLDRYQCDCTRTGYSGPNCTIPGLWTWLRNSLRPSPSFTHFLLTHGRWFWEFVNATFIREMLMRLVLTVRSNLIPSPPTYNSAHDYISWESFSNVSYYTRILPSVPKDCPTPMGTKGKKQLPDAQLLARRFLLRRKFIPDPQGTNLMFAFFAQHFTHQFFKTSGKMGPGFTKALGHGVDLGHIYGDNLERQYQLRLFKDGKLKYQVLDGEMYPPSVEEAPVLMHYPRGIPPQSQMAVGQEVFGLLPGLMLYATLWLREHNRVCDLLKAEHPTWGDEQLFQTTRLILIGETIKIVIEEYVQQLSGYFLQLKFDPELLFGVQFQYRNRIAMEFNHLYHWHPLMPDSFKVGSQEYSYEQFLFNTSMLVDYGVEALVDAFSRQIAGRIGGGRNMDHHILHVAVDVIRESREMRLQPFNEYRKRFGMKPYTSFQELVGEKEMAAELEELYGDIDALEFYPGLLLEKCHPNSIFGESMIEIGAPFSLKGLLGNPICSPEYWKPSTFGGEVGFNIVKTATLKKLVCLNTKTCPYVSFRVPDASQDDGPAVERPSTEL
# measurementNotes: Inhibition of COX-1 oxidation of arachidonic acid (Example 6)
# Assay type: biochemical
# experimentalContext: oxidation of arachidonic acid, Table 2; read-out: COX-1 IC50 (μM ± SEM)
experimentalReadout: IC50 (µM)
One number for each entry, in µM.

- Cc1nc2c(c(C)c1O)COC(=O)N2: 198

**Q:** Please look up its IC50: O=C1NCc2cc(O)cnc2N1
**A:** 451

====

# testedSystem: PGHS-1 (COX-1) (Homo sapiens)
experimentalReadout: pIC50
Answers are plain numbers, as −log10 of the molar value.

**Q:** Please look up its pIC50: CC(=O)Nc1ccc(O)cc1 [ApAP, acetaminophen]
**A:** 3.60
